# TEST_METHOD_NOTES: Oral bioavailability and pharmacokinetics
# Type: in vivo, rabbits
# PARTICULARS: plasma, rabbit, 10 mg/kg, read-out: AUC0–24
READOUT_TYPE: AUC(0-t)

Give the measured AUC(0-t) for CC(=O)O[C@@]12CO[C@@H]1C[C@H](O)[C@@]1(C)C(=O)[C@H](O)C3=C(C)[C@@H](OC(=O)[C@H](O)[C@@H](NC(=O)OC(C)(C)C)c4ccccc4)C[C@@](O)([C@@H](OC(=O)c4ccccc4)[C@H]21)C3(C)C 441 ng·h/mL

###

# TEST_METHOD_NOTES: Oral bioavailability and pharmacokinetics
# Type: in vivo, rabbits
# PARTICULARS: plasma, rabbit, 10 mg/kg
READOUT_TYPE: Cmax (ng/mL)
Express it in ng/mL; write the number only.

Give the measured Cmax for CC(=O)O[C@@]12CO[C@@H]1C[C@H](O)[C@@]1(C)C(=O)[C@H](O)C3=C(C)[C@@H](OC(=O)[C@H](O)[C@@H](NC(=O)OC(C)(C)C)c4ccccc4)C[C@@](O)([C@@H](OC(=O)c4ccccc4)[C@H]21)C3(C)C 41.8

Values were extracted from paper PMC6127092.
